Provenance of the data: patent US20060269594A1

Experiment description: Pharmacokinetic and in vivo leakage studies
Condition summary: mouse, iv; plasma, 5 mg/kg i.v., ICR mice
Reported metric: Cmax (ng/mL)
Numbers only, in ng/mL.

Which Cmax is reported for this compound? CC[C@@]1(O)C(=O)OCc2c1cc1n(c2=O)Cc2cc3c(CN(C)C)c(O)ccc3nc2-1 [Free]
2170

---

Experiment description: Pharmacokinetic and in vivo leakage studies
Condition summary: mouse, iv; plasma, 5 mg/kg i.v., ICR mice
Reported metric: AUC
State the value, then name its unit.

Which AUC is reported for this compound? CC[C@@]1(O)C(=O)OCc2c1cc1n(c2=O)Cc2cc3c(CN(C)C)c(O)ccc3nc2-1 [Free]
2770 ng·h/mL
